- Organism: Oryctolagus cuniculus
- Test name: Concentration required to inhibit PAF-induced maximum aggregation by 50%
- Type: functional
pIC50: −log10 of the molar value.
Measurement kind: pIC50

Molecule | Recorded result
Cc1nc2cnccc2n1CC1CCN(C(=O)CC(C)(C)c2ccc(/N=N\c3ccc(O)c(C(=O)O)c3)cc2)CC1 | 5.80
Cc1nc2cnccc2n1CC1CCN(C(=O)C(C)c2ccc(N)cc2)CC1 (stereo not drawn) | 6.37
Cc1nc2cnccc2n1CC1CCN(C(=O)NC(C)c2ccc(N)cc2)CC1 (stereo not drawn) | 5.80
Cc1nc2cnccc2n1CC1CCN(C(=O)CC(NC(=O)c2ccc(N)cc2)c2ccccc2)CC1 (stereo not drawn) | 5.66
Cc1nc2cnccc2n1Cc1ccc(S(=O)(=O)N[C@@H](CC(C)C)C(=O)NCc2ccc(N)cc2)cc1 | 6.92

(I) CCOC(=O)[C@H](CC(C)C)N(Cc1cccc(N)c1)S(=O)(=O)c1ccc(Cn2c(C)nc3cnccc32)cc1
(II) CCOC(=O)[C@H](Cc1ccc(N)cc1)NS(=O)(=O)c1ccc(Cn2c(C)nc3cnccc32)cc1
(III) Cc1nc2cnccc2n1CC1CCN(C(=O)/C=C(\c2ccccc2)c2ccc(N)cc2)CC1
(IV) CCOC[C@H](CC(C)C)N(C(=O)c1ccc(N)cc1)S(=O)(=O)c1ccc(Cn2c(C)nc3cnccc32)cc1
(V) C/C(=C\C(=O)N1CCC(Cn2c(C)nc3cnccc32)CC1)c1ccc(N)cc1
Prompt line: Rank entries according to their pIC50, from the largest number down. Dear reader, please state the labels in the requested order.
Response line: III, I, V, II, IV
(III: 8.30, I: 7.77, V: 7.22, II: 6.13, IV: 5.89)

(1) CCOC(=O)[C@H](CC(C)C)N(C(=O)c1ccc(N)cc1)S(=O)(=O)c1ccc(Cn2c(C)nc3cnccc32)cc1
(2) Cc1nc2cnccc2n1CC1CCN(C(=O)CC(C)(C)c2ccc(N)cc2)CC1
(3) CCOC(=O)[C@H](CC(C)C)N(Cc1ccc(/N=N\c2ccc(O)c(C(=O)O)c2)cc1)S(=O)(=O)c1ccc(Cn2c(C)nc3cnccc32)cc1
(4) Cc1nc2cnccc2n1CC1CCN(C(=O)/C=C/c2ccc(N)cc2)CC1
(5) CCOC(=O)NC(CC(=O)N1CCC(Cn2c(C)nc3cnccc32)CC1)c1ccc(N)cc1 (stereo not drawn)
Prompt line: Number of molecules to sort: 5. Sort criterion: pIC50, ascending. Please write the labels in the order that was asked for.
Response line: 4, 3, 5, 1, 2

(A) Cc1nc2cnccc2n1CC1CCN(C(=O)CC(C)c2ccc(N)cc2)CC1 (stereo not drawn)
(B) Cc1nc2cnccc2n1Cc1ccc(S(=O)(=O)N(C)[C@@H](CC(C)C)C(=O)NCc2cccc(N)c2)cc1
(C) Cc1nc2cnccc2n1CC1CCN(C(=O)CN(C)C(=O)c2ccc(N)cc2)CC1
Prompt line: Please put the entries in order of rising pIC50. Write the labels, ordered according to the request.
Response line: C, B, A
(C: 5.90, B: 6.60, A: 7.96)

---

- Organism: Oryctolagus cuniculus
- Test name: Concentration required to inhibit PAF-induced maximum aggregation by 50%
- Format: functional
Measurement kind: IC50 (nM)

Observe how each entry below is paired with its result.
Molecule | Measurement kind | Measure unit | Recorded result
Cc1nc2cnccc2n1CC1CCN(C(=O)CN(c2ccccc2)S(=O)(=O)c2ccc(/N=N\c3ccc(O)c(C(=O)O)c3)cc2)CC1 | IC50 | nM | 4010
CCOC[C@H](CC(C)C)N(Cc1ccc(N)cc1)S(=O)(=O)c1ccc(Cn2c(C)nc3cnccc32)cc1 | IC50 | nM | 16
Cc1nc2cnccc2n1CC1CCN(C(=O)/C=C(\c2ccccc2)c2ccc(/N=N\c3ccc(O)c(C(=O)O)c3)cc2)CC1 | IC50 | nM | 7300
CCOC(=O)N(CC(=O)N1CCC(Cn2c(C)nc3cnccc32)CC1)c1ccc(N)cc1 | IC50 | nM | 250
Cc1nc2cnccc2n1CC1CCN(C(=O)CC(Nc2ccc(N)cc2)c2ccccc2)CC1 (stereo unspecified) | IC50 | nM | 29

(a) Cc1nc2cnccc2n1CC1CCN(C(=O)/C=C(/c2ccccc2)c2cccc(N)c2)CC1
(b) CCOC[C@H](CC(C)C)N(Cc1ccc(/N=N\c2ccc(O)c(C(=O)O)c2)cc1)S(=O)(=O)c1ccc(Cn2c(C)nc3cnccc32)cc1
Prompt line: Between a and b , which one has the lower reported IC50 value? State your choice using its label.
Response line: a
(a: 190 nM, b: 400 nM)

(A) Cc1nc2cnccc2n1Cc1ccc(S(=O)(=O)N(C)c2cccc(N)c2)cc1
(B) CCOC(=O)[C@H](CC(C)C)N(Cc1ccc(N)cc1)S(=O)(=O)c1ccc(Cn2c(C)nc3cnccc32)cc1
Prompt line: Which record would sort first by descending IC50, A or B ? Answer with the label corresponding to your selection.
Response line: A
